- ASSAY_SETUP: human;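 further: human clinical data: severe hepatitis, meaning potentially life-threatening liver failure or clinically observed cases, the value counts how many indexed literature references report it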
Where a SMILES comes first, the peptide text is derived from it. Bridges are numbered along the chain shown (N, C = ends). [ ]: non-standard residue; d: D form. The star is where a group is joined. Threoninol(2S,3R) = C[C@@H](O)[C@H](CO)N*

MOLECULE: c1ccc(C2(N3CCCCC3)CCCCC2)cc1 [PHENCYCLIDINE]
Hepatotoxicity (severe hepatitis): 2
--
MOLECULE: COC1=CC(=O)C[C@@H](C)[C@]12Oc1c(Cl)c(OC)cc(OC)c1C2=O [GRISEOFULVIN]
Hepatotoxicity (severe hepatitis): 0
--
MOLECULE: CN1c2c(oc(=O)n(-c3ccccn3)c2=O)-c2ccccc2S1(=O)=O [DROXICAM]
Hepatotoxicity (severe hepatitis): 0
--
MOLECULE: CO[C@@]1(NC(=O)CSCC#N)C(=O)N2C(C(=O)O)=C(CSc3nnnn3C)CS[C@@H]21 [CEFMETAZOLE]
Hepatotoxicity (severe hepatitis): 0
--
MOLECULE: CCN(CC)C(=O)/C(C#N)=C/c1cc(O)c(O)c([N+](=O)[O-])c1 [ENTACAPONE]
Hepatotoxicity (severe hepatitis): 0
--
MOLECULE: COc1ccc([C@@H]2Sc3ccccc3N(CCN(C)C)C(=O)[C@@H]2OC(C)=O)cc1 [DILTIAZEM]
Hepatotoxicity (severe hepatitis): 1
--
MOLECULE: CN1C(=O)CCS(=O)(=O)C1c1ccc(Cl)cc1 (stereo not given) [CHLORMEZANONE]
Hepatotoxicity (severe hepatitis): 2
--
MOLECULE: NC(=O)CC[C@@H]1NC(=O)[C@H](Cc2ccccc2)NC(=O)[C@H](Cc2ccc(O)cc2)NC(=O)CCSSC[C@@H](C(=O)N2CCC[C@H]2C(=O)N[C@H](CCCN=C(N)N)C(=O)NCC(N)=O)NC(=O)[C@H](CC(N)=O)NC1=O [DESMOPRESSIN]
Hepatotoxicity (severe hepatitis): 0
--
MOLECULE: O=NN(CCCl)C(=O)NCCCl [CARMUSTINE]
Hepatotoxicity (severe hepatitis): 2
--
MOLECULE: CO/N=C(\C(=O)N[C@@H]1C(=O)N2C(C(=O)OC(C)OC(C)=O)=C(COC(N)=O)CS[C@H]12)c1ccco1 (stereo not given in full) [CEFUROXIME AXETIL]
Hepatotoxicity (severe hepatitis): 0
--
MOLECULE: CCCC(=O)O[C@H]1[C@H](C)O[C@@H](O[C@H]2[C@H](N(C)C)[C@@H](O)[C@H](O[C@H]3[C@@H](CC=O)C[C@@H](C)[C@@H](O)/C=C/C=C/C[C@@H](C)OC(=O)C[C@@H](O)[C@@H]3OC)O[C@@H]2C)C[C@@]1(C)OC(=O)CC [ROKITAMYCIN]
Hepatotoxicity (severe hepatitis): 0
--
MOLECULE: C[C@@H](O)[C@H](CO)NC(=O)[C@@H]1CSSC[C@H](NC(=O)[C@H](N)Cc2ccccc2)C(=O)N[C@@H](Cc2ccccc2)C(=O)N[C@H](Cc2c[nH]c3ccccc23)C(=O)N[C@@H](CCCCN)C(=O)N[C@@H]([C@@H](C)O)C(=O)N1 (H-[dF]CF[dW]KTC-{Threoninol(2S,3R)}; disulfide 2-7)
Hepatotoxicity (severe hepatitis): 1
--
MOLECULE: COc1cc(NS(C)(=O)=O)ccc1Nc1c2ccccc2nc2ccccc12 [AMSACRINE]
Hepatotoxicity (severe hepatitis): 4
--
MOLECULE: CCOC(=O)/C=C(C)/C=C/C=C(C)/C=C/c1c(C)cc(OC)c(C)c1C [ETRETINATE]
Hepatotoxicity (severe hepatitis): 2
--
MOLECULE: C[C@H]([C@](O)(Cn1cncn1)c1ccc(F)cc1F)S(C)(=O)=O [GENACONAZOLE]
Hepatotoxicity (severe hepatitis): 0
